Each recorded value in this set is attributed to the NTF2 design screens of Basanta et al. (2020).

# Protocol text: protease stability score; higher = more stable; yeast display proteolysis, trypsin and chymotrypsin;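 note: relative to predicted unfolded state with 0 unfolded-like and 1 meaning tenfold more protease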
Measure: protease stability score
Number only, no unit.

Sample answers from the record:
{"columns": ["Sequence input", "protease stability score"],
 "data": [
  ["DEDKKLHHEALEVWERVLKTGNFRIESEYLDPHARNEFEGRHFHGRELFHELNEELGVENVRFHHFHVHDLETFNGRILMRFHMEGEINGQQFNVEVKVDTEKYDGVWFTRSFVER", 0.38],
  ["SEEDQLLHHQMETWRHMIHTGDEELLERFLDPTVRIEYDGQEHHGRETAAHLFRELAEKLGIEFEDLEIHETEIQGDKIRVDTILYVDINGRKLVFRTHTVWEKINGRWILREIKIE", 0.043]
]}

For SEEDHHADEFRRIMYEIFETGDEKKFEDLFDPNVRWEQGDKHTHGMETATRDMLDLERRLGVDHIKYKDIRFELVDGRMIVYIIGTIYINGRPRHLHIEIIVSKINGRWFVENVRMKVE the sequence record lists protease stability score as 2.14
